System: scn1Lab mutant zebrafish
Format: in vivo, Danio rerio (zebrafish)
Details: zebrafish, in vivo

- Smiles Representation: "CC[C@@H](C(N)=O)N1CCCC1=O"
  System Tested: "scn1Lab mutant zebrafish"
  effect on locomotor seizure behavior: "no effect"
- Smiles Representation: "Nc1nnc(-c2cccc(Cl)c2Cl)c(N)n1"
  System Tested: "scn1Lab mutant zebrafish"
  effect on locomotor seizure behavior: "no effect"

---

Test system: scn1Lab mutant zebrafish
Type: in vivo, Danio rerio (zebrafish)
Conditions: zebrafish, in vivo
Assay Readout: Epileptiform event frequency (burst frequency; interictal- and ictal-like discharges)

- Compound: "[Br-].[K+] [potassium bromide]"
  Recorded Result: "reduced"
- Compound: "CC(C)(C)C(O)/C=C/c1ccc2c(c1)OCO2 (stereo not shown)"
  Recorded Result: "reduced"
